system: HOP-92 NSCLC; test: NCI-60 one-dose screen, 48 h (100 = growth as untreated, 0 = no growth, -100 = all killed); conditions: 10 µM unless noted
About 83,000 compounds went through this panel and 20% of them were active in at least one assay; those are over-represented in the sample as a whole. Activity calls are given as the source filed them. The calls were made as follows: active = growth percent below 10; inactive = the rest.
assayMetric: growth

Reference set (5 entries):
COc1ccc(S(=O)(=O)N2CCN(c3cc4c(cc3F)c(=O)c(C(=O)O)cn4C3CC3)CC2)c(OC)c1 : 90.2% (inactive)
CC(C)N(Cc1ccc(CN(C(=O)CCl)C(C)C)cc1)C(=O)CCl : -65.4% (active)
CCN(Cc1ccc(CN(CC)C(=O)C(Br)Br)cc1)C(=O)C(Br)Br : 60.7% (inactive)
Nc1c(C(=O)Nc2ccccc2)sc2nc3c(cc12)CCC3 : 55.6% (inactive)
CC1CCN(C(=O)CSc2nc3sc4c(c3c(=O)[nH]2)CCCC4)CC1 : 88.2% (inactive)

Given CC(CCc1ccccc1)NC(=O)c1n[nH]c(=O)c2ccccc12 (stereo not drawn) , state its recorded growth. 61.2% (inactive)

Given Cc1ccc2c(c1)ncn2-c1ncnc2c1CC(C)c1ccccc1N2C (stereo not drawn) , state its recorded growth. 24% (inactive)

Given CCN1C(=S)N(CC)C2Nn3c(s/c(=C4\C(=O)N(C)c5ccccc54)c3=O)=NC21 (stereo not drawn) , state its recorded growth. 76.1% (inactive)

Given CCC(=O)Nc1ccccc1C#C/C=C\C#Cc1ccccc1SC , state its recorded growth. 48.1% (inactive)

Given CCN(Cc1ccc(CN(CC)C(=O)C(Cl)(Cl)Cl)cc1)C(=O)C(Cl)(Cl)Cl , state its recorded growth. 33.1% (inactive)

Given C=CCc1cc(Cl)cc2c(OC(C)=O)c(C(C)=O)c(-c3ccccc3)nc12 , state its recorded growth. 105% (inactive)

Given COC1=CC(c2ccc[nH]2)=N/C1=C\c1[nH]c(C)c(C(=O)CCC(=O)Oc2ccc3c(c2)CCC2C3CC[C@]3(C)[C@@H](O)CC[C@@H]23)c1C (stereo partly drawn) , state its recorded growth. -45.2% (active)

Given COc1ccc(NC(=O)CSc2nc3ccccc3c(=O)n2Cc2cc(OC)c(OC)c(OC)c2)cc1 , state its recorded growth. 58.8% (inactive)
